- measured_on: human GLP-1 receptor (human, UniProt P43220 24-463)
- assay_summary: cell-based or functional assay
Starred links: 1 amine or outer side, 2 acyl side, 3 side chain; linkers in the order of their positions; H or OH if unused. Non-standard residues stand in square brackets, D forms with d. Groups on a side chain read outwards from the residue. No end group written: not given here. *: point of attachment. C20 diacid = O=C(O)CCCCCCCCCCCCCCCCCCC(=O)*; γGlu = O=C(O)[C@H](CCC(=O)[*:2])N[*:1]; εLys = N[C@@H](CCCCN[*:1])C(=O)[*:2]; Aib = CC(C)(N)C(=O)O
The following binders are shown together with reported EC50, CreLuc assay, 100% hP values.
Could you give me the number in nM? Just the number is fine.

Which EC50, CreLuc assay, 100% hP is reported for this binder? YXEGTFTSDYSIXLEKQAQXAFVQWLIKGGPESGASLRHYYNWLTRQRY (Aib at 2, 13, 20; K28 side chain: C20DA-gGlu-gGlu-gGlu-gGlu-gGlu-gGlu-eLys; C-terminal NH2) [Compound 37] 5.13

Suppose we examine the binder YXEGTFTSDYSIXLEKQAQXAFVEWLIKGGPSSGASLRHYYNLXTRQRY (Aib at 2, 13, 20, 44; K28 side chain: C20DA-gGlu-gGlu-gGlu-gGlu-gGlu-gGlu-eLys; C-terminal NH2) [Compound 79] ; what EC50, CreLuc assay, 100% hP value has been reported? 2.09

Field request: EC50, CreLuc assay, 100% hP | item: Y[Aib]EGTFTSDYSI[Aib]LEKQAE[Aib]AFVQWLIKGGPSEPASLRHYYNWLTRQRY-NH2 (not fully specified (residue 28); also: TFA salt) [Compound 54] 7.71

Others:
Data request, read-out EC50, CreLuc assay, 100% hP, for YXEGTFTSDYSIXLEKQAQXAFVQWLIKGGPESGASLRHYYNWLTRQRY (Aib at 2, 13, 20; K28 side chain: C20DA-gGlu-gGlu-gGlu-gGlu-gGlu; C-terminal NH2) [Compound 29] 6.74

Entry Y[Aib]EGTFTSDYSI[Aib]LEKQAQ[Aib]AFVQWLIKGGQRYYASLRHYYNWLTRQRY-NH2 (not fully specified (residue 28); also: TFA salt) [Compound 6] has what EC50, CreLuc assay, 100% hP? 42.8

Value lookup for EC50, CreLuc assay, 100% hP; key = YXEGTFTSDYSIXLEKQAQXAFVEWLIKGGPSYYVSLRHYYNWLTRQRY (Aib at 2, 13, 20; K28 side chain: C20DA-gGlu-gGlu-gGlu-gGlu-gGlu-gGlu-eLys; C-terminal NH2) [Compound 80] 16.3

Any idea what its EC50, CreLuc assay, 100% hP is? The binder is Y[Aib]EGTFTSDYSI[Aib]LEKQAQ[Aib]AFVQWLIK([εLys-γGlu-γGlu-γGlu-γGlu-γGlu-C20 diacid])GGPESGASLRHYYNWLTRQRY-NH2 (also: TFA salt) [Compound 61] 3.95
